Test system: TK-10 renal
Test: NCI tumour cell line growth inhibition, 48 h
Catalogue of TGI values
Use µM as the unit, but write only the number.

compound	measurement_target	numeric_value
NCCCCCCCCCCn1c2c(c3ccccc3c1=O)C(=O)c1ccccc1-2	TK-10 renal	20.9

Q. For TK-10 renal, provide TGI of CC(C)(Cl)C(Br)CCC(C)(Br)C(Br)CBr (stereo not given) please.
A. 62.2

Q. Also need COc1cc2c3c(n(CCCNCCNCCN)c(=O)c2cc1OC)-c1cc2c(cc1C3=O)OCO2 , thanks.
A. 22.4

Q. Would you mind doing CCCCCCCCOCC(CO)OCCCCCCCC (stereo not given) as well?
A. 34.4

====

Test system: UACC-257 melanoma
Experiment: NCI tumour cell line growth inhibition, 48 h
readout_type: GI50

Please review the following examples before continuing.
molecule	GI50
COc1cc2c(cc1OCCCCCn1c(-c3ccc(OCc4ccccc4)cc3)nc3cc(N4CCOCC4)ccc31)N=C[C@@H]1CCCN1C2=O	3.04 µM
NCCCCCCCCCCn1c2c(c3ccccc3c1=O)C(=O)c1ccccc1-2	21.2 µM
CNC(=O)NCC1OC(n2cnc3c(NC(=O)Nc4ccccc4)ncnc32)C(O[Si](C)(C)C(C)(C)C)C1CC(=O)N(C)OC (centres undefined)	8.25 µM

Q. I have this molecule here, COc1cccc(/C=N/[N-]C(=O)c2ccncc2)c1[O-].[Ni+2].[OH3+] , and I need its recorded GI50.
A. > 100 µM

====

In this section we review reported TGI values for a set of molecules.
System: MDA-MB-231 breast
Assay: NCI tumour cell line growth inhibition, 48 h
Write the answer as a number in µM, unit excluded.

molecule	unit_symbol	TGI
CC12CP(=O)(c3ccccc3)CC1c1ccccc1C2c1ccccc1 (stereo not drawn)	µM	40.1
O=c1c2cc(F)ccc2sc2c(Nc3ccncc3)nc3ccccc3c12	µM	2.67

Next item in the queue.
Q. Test system MDA-MB-231 breast; read-out TGI; what value for C[n+]1c(-c2ccccc2)c2cc(N)ccc2c2ccccc21 ?
A. 60

====

Test system: LXFL 529 NSCLC
Assay: NCI tumour cell line growth inhibition, 48 h
readout_type: TGI

compound	TGI
O=C(CC1(O)C(=O)Nc2c(Cl)ccc(Cl)c21)c1ccco1 (configuration not stated)	27.4 µM
CC(C)NCCCC(C)Nc1ccnc2ccc3nn(C)nc3c12 (configuration not stated)	> 100 µM
N#Cc1ccccc1NC(=O)/C(=N\Nc1ccc([N+](=O)[O-])cc1)C1C(=O)NC(=O)NC1=O	> 100 µM
COC1=CC(=Nc2c(Cl)cc(Cl)cc2OC(=O)c2ccc([N+](=O)[O-])cc2)C=C(OC)C1=O	18.5 µM
CNc1ccccc1-c1nc2ccccc2c(=O)o1	> 100 µM
Cc1nc2ccccn2c1N=Nc1ccc(C(=O)NN)cc1	> 100 µM
c1ccc(C2(c3ccccc3)SSC3(S2)C2CC4CC(C2)CC3C4)cc1 (configuration not stated)	> 100 µM
COC(=O)/C=C/C1C2C3(CCC(C)C12C)OCCS3 (configuration not stated)	> 100 µM

Q. Fill in: TGI of CCCN=Cc1c(O)c(O)c(C(C)C)c2cc(C)c(-c3c(C)cc4c(C(C)C)c(O)c(O)c(C=NCCC)c4c3O)c(O)c12 is ___
A. 14.7 µM

Q. Similarly, CC1CCC2(OCCO2)[C@]2(C)CC(O)C(=O)C=C12 (some centres not stated) ?
A. > 100 µM

Q. And COc1cccc2c1N[S@](=O)S2 ?
A. > 100 µM

Q. Record: O=C(Cc1nc2ccccc2o1)C(=O)Nc1ccccc1C(F)(F)F
A. > 100 µM

Q. CN(C)CCNc1ccc2nnn3c4ccccc4c(=O)c1c23 , same question.
A. 17.5 µM

Q. Field entry: O=C(NN1C(=O)C(Cl)C1c1ccc(O)cc1)c1ccccc1O (configuration not stated)
A. 33.3 µM

Q. Now the same for Clc1cccc(Cl)c1C1SCc2nc3ccccc3n21 (configuration not stated)
A. > 100 µM

Q. Same thing, different compound: O=C1OC(O)c2cc3c(cc21)OCO3 (configuration not stated)
A. > 100 µM

Q. Subsequent entry: CCOC(=O)C1CCCCN1C(=O)OCc1ccccc1 (configuration not stated)
A. > 100 µM

====

System: CCRF-CEM leukemia
Assay: NCI tumour cell line growth inhibition, 48 h
Reported values of TGI for individual entries
A number alone suffices; assume µM.

smiles_structure	measurement_target	unit_symbol	TGI
CN(C)CCCNC(=O)c1cc2/c(=C\c3ccc(N(C)C)cc3)c3ccccc3n2[n+]1C	CCRF-CEM leukemia	µM	90.1

Switching to the query record.
Q. Entry CCN(CC)Cc1cc(Nc2c3ccc(Cl)cc3nc3ccc(OC)cc23)ccc1O has what TGI?
A. 55.6

====

Test system: SF-268 CNS
Experiment: NCI tumour cell line growth inhibition, 48 h
Residues, ends and D or L forms follow the SMILES beside them. *: point of attachment. Boc = CC(C)(C)OC(=O)*; OBn = c1ccc(CO*)cc1
Overview of reported TGI across a group of molecules:

molecule	result
CCO/C=N/C1=C(C#N)C(c2ccc(OC)cc2)c2sc3c(F)cccc3c2O1 (stereo not given)	> 100 µM
Cc1ccc(S(=O)(=O)NC(=O)NC(C(=O)O)C(C)C)cc1 (stereo not given)	> 100 µM
CCOC(=O)C1C(O)CC2c3ccccc3-c3ccccc3C21 (stereo not given)	> 100 µM
CN(C)CCNc1ccc2nnn3c4ccccc4c(=O)c1c23	18.8 µM
O=c1cc(-c2ccccc2)c2ccc(O)c(CN(CCCl)CCCl)c2o1	44.5 µM
CC(C)CC(NC(=O)OC(C)(C)C)C(=O)NC(CC(=O)OCc1ccccc1)C(N)=O (stereo not drawn) (Boc-Leu-Asp(OBn)-NH2; configuration not given here)	> 100 µM

Q. Looking for the measured TGI of O=C(N[C@@H](c1ccccc1)[C@@H](O)C(=O)OCc1ccc2c(c1)OCO2)c1ccccc1 , can you help?
A. > 100 µM

Q. Ok, now CCOC(=O)C(/C=N\C(=S)Nc1c(CC)cccc1C(C)(C)C)=C(/O)c1ccccc1
A. > 100 µM

Q. Same question for O=c1c(Cc2c(O)ccc3ccccc23)nnc2sc(-c3nn4c(=O)c(Cc5c(O)ccc6ccccc56)nnc4s3)nn12 please.
A. > 100 µM

====

System: SNB-19 CNS
Experiment: NCI tumour cell line growth inhibition, 48 h
readout_type: TGI

See these solved cases before continuing.
compound	readout_type	result
Cc1cc(Nc2ccc(S(=O)(=O)O)cc2)c2ccccc2n1	TGI	> 100 µM
O=C1C=CC(=O)c2cc3cc(CO)ccc3cc21	TGI	66.8 µM
C=Cc1nc2nnc(CCCCCCCCc3nnc4nc(C=C)[nH]n34)n2[nH]1	TGI	> 100 µM
COc1cc([C@@H]2c3cc4c(cc3[C@@H](Nc3ccc(N=Cc5ccc(C(=O)O[C@@H](C(=O)O[C@H]6C[C@@]7(O)[C@@H](OC(=O)c8ccccc8)[C@@H]8[C@]9(OC(C)=O)CO[C@@H]9C[C@H](O)[C@@]8(C)C(=O)[C@H](OC(C)=O)C(=C6C)C7(C)C)[C@@H](NC(=O)c6ccccc6)c6ccccc6)cc5)cc3)[C@H]3COC(=O)[C@H]23)OCO4)cc(OC)c1O	TGI	> 50 µM
C[C@@]1(Br)C[C@@](C)(Cl)[C@@H](Br)CC1/C=C/Cl (some centres not stated)	TGI	45.3 µM
O=S1(=O)OCCOS(=O)(=O)C1(Br)Cc1ccccc1	TGI	> 100 µM
COc1cc(/C=N/n2c(-c3ccccc3)n[nH]c2=O)cc(OC)c1OC	TGI	> 43.1 µM
N#Cc1c(-c2ccccc2)cc(-c2ccccc2)n(CCCC(=O)NO)c1=O	TGI	13 µM
CCn1cc(C(=O)O)c(=O)c2cc(F)c(N3CCN(CN4C(=O)/C(=N\c5ncc(Cc6cc(OC)c(OC)c(OC)c6)c(N)n5)c5cc(Cl)ccc54)CC3)cc21	TGI	> 100 µM
COC(=O)CN(CC1O[C@@H]2OC(C)(C)O[C@@H]2C1N=[N+]=[N-])C(=O)OCc1ccccc1 (some centres not stated)	TGI	> 100 µM

Consider the record given below.
Q. Please report the recorded TGI for CC(C)=CCC/C(C)=C/CO .
A. > 100 µM

====

System: UO-31 renal
Test: NCI tumour cell line growth inhibition, 48 h
Please use Condition met whenever TGI is not below 20 µM, and Condition not met whenever it is.

Here's what some known entries look like.
compound	measurement_target	classification
CC1=CC(C)(C)[C@H]2O[C@@]3(O)C[C@]4(C)[C@H]5C[C@@](C(C)C)(O[C@H]4c4ccoc4)O[C@H]4[C@]5(C3)O[C@@]1(O)[C@]24O	UO-31 renal	Condition met
Cn1ccc(=O)c2c(O)c3ccccc3c(O)c21	UO-31 renal	Condition met
ClC(Cl)(Cl)C(N1CCN(c2ccccc2)CC1)N1CCN(c2ccccc2)CC1	UO-31 renal	Condition met
CCOC(=O)C(/C=N\C(=S)Nc1c(CC)cccc1C(C)(C)C)=C(/O)c1ccccc1	UO-31 renal	Condition met
O=C(c1ccc(Cl)cc1)c1no[n+]([O-])c1C(=O)c1ccc(Cl)cc1	UO-31 renal	Condition not met
O=C(Nc1nc(-c2ccc(Cl)cc2)cs1)c1cc(-c2ccc(Br)cc2)nc2ccc(Cl)cc12	UO-31 renal	Condition met
O=C1C(c2c(O)[nH]c3ccc([N+](=O)[O-])cc23)=Nc2ccccc21	UO-31 renal	Condition met
O=C(CCc1n[nH]c(=S)o1)Nc1ccc(Cl)cc1Cl	UO-31 renal	Condition met

Q. Item CCC(CC)c1nc(Nc2cccc(OC)c2)c2ccccc2n1 with TGI of 20 µM or above?
A. Condition not met

Q. Field entry: Cc1c2c(cc3c1[nH]c1ccccc13)C(c1ccc(Cl)cc1)=NCC2
A. Condition not met

Q. And what about the compound O=C1Nc2cc(Cl)ccc2C(=O)N2CCC[C@@H]12 ?
A. Condition met

Q. Try the compound COc1ccc(O)c(/C=N/NC(=S)N2CCCCC2)c1
A. Condition not met

Q. Try CCOC(=O)C1C(=O)C=C(c2cc(C)ccc2O)CC1c1cccc(Cl)c1 (stereo not given) next.
A. Condition met

Q. Another compound to look at: O=C(c1nc2ccc(Cl)cc2[nH]c1=O)C(O)c1ccccc1 (stereo not given)
A. Condition met

Q. Cool, now CCCCCCCCCCCCCCCC/C(C(=O)OC)=C(/O)C(=O)OCC
A. Condition met

Q. // query: CC1(CO)COC(C)(C)OC1
A. Condition met

Q. Would you mind doing C/C=C(\C)[C@@H](O)C(=O)O[C@@H]1CC(C(C)(C)O)[C@](C)(CCC(=O)OC)[C@H]2[C@H](OC(=O)[C@H](O)[C@H](C)CC)C[C@]3(C)C(=CC[C@H]3[C@H]3CO[C@H](C=C(C)C)C3)[C@]12C (stereo not given in full) as well?
A. Condition met

Q. What about COc1cc(OC)c2c(c1)C(=O)C(CC1(C)OCCCO1)=CC2=O ?
A. Condition met

Q. Now try COC1=CC(=Nc2c(Cl)cc(Cl)cc2OC(=O)c2ccc([N+](=O)[O-])cc2)C=C(OC)C1=O .
A. Condition met

Q. Here is the next compound: COC(=O)/C(=N\NC(=O)c1ccccc1O)C(C#N)c1ccccc1 (stereo not given)
A. Condition met
